Below, each entry is listed with its recorded thermal shift delta Tm.
test system: LOC_OS01G70970-cb002; assay: thermal shift delta Tm vs DMSO control; higher = stronger stabilization (binding); conditions: 12.5 µM; protein concentration 2 µM;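 further: purified Escherichia coli-expressed rice kinase domain construct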
READOUT NAME: thermal shift delta Tm (°C)

COMPOUND: Nc1cccc(-c2cc3c(Oc4cccc(O)c4)ncnc3[nH]2)c1
MEASURED VALUE: 0.81

COMPOUND: FC(F)(F)c1ccc(/C=C/c2nc(COc3ccc(CCCCn4ccnn4)cc3)co2)cc1
MEASURED VALUE: 0.3

COMPOUND: Cc1ccc(C(=O)Nc2ccc(Oc3cc4cnn(C)c4cc3-c3cn[nH]c3)c(F)c2)c(=O)n1-c1ccc(F)cc1
MEASURED VALUE: 0.33

COMPOUND: C=CC(=O)Nc1ccc2ncnc(Nc3cccc(Br)c3)c2c1
MEASURED VALUE: 0.22

COMPOUND: Cc1cc(Nc2cc(N3CCN(C)CC3)nc(Sc3ccc(NC(=O)C4CC4)cc3)n2)n[nH]1
MEASURED VALUE: 2.62

COMPOUND: C#Cc1cccc(Nc2ncnc3cc(OCCOC)c(OCCOC)cc23)c1
MEASURED VALUE: 0.34

COMPOUND: Cn1cc(C2=C(c3ccc(Cl)cc3Cl)C(=O)NC2=O)c2ccccc21
MEASURED VALUE: 7.16

COMPOUND: Nc1ncnc2n[nH]c(Nc3ccc(F)cc3)c12
MEASURED VALUE: 0.93

COMPOUND: Oc1cc(O)cc(/C=C/c2ccc(O)c(O)c2)c1
MEASURED VALUE: 0.59

COMPOUND: CC[C@@H](N)CNc1ccnc(-c2cc(-c3cnn(C)c3)ccc2O)n1
MEASURED VALUE: 0.65

COMPOUND: CC(C)c1c2cc(-c3ccnc(NC4CCC(NC5CCOCC5)CC4)n3)ccc2nn1C (stereo not drawn)
MEASURED VALUE: 0.29

COMPOUND: CO[C@@H](C)Cn1c(=O)n(C)c2cnc3ccc(-c4cncc(C(C)(C)O)c4)cc3c21
MEASURED VALUE: 0.44

COMPOUND: O=c1cc(-c2cccc3c2Sc2ccccc2S3)oc(N2CCOCC2)c1
MEASURED VALUE: -0.34

COMPOUND: COc1cc2ncnc(Nc3ccc(Oc4ccccc4)cc3C)c2cc1OC
MEASURED VALUE: 0.47

COMPOUND: O=c1cc(N2CCOCC2)oc2c(-c3cccc4c3sc3ccccc34)cccc12
MEASURED VALUE: -0.71

COMPOUND: CN1CCN(Cc2ccc(NC(=O)Nc3ccc(Oc4ccnc(N)n4)cc3)cc2C(F)(F)F)CC1
MEASURED VALUE: 2.3

COMPOUND: Cn1cc(-c2ccc3ncc(Cc4ccc5ncccc5c4)n3n2)cn1
MEASURED VALUE: 0.25

COMPOUND: Cc1nc(NC(=O)N2CCC[C@H]2C(N)=O)sc1-c1ccnc(C(C)(C)C(F)(F)F)c1
MEASURED VALUE: 0.36

The reported numbers originate from the supplement of paper PMC9694430.
